The measured values listed here are drawn from patent US20060018919A1.

target: target rabbit anti-LOS antibody; assay: peptide ELISA, peptide coupled to NucleoLink strip, target antibody 0.4 ug/well
Ends that are not written are not given here.
Parameter: Binding reactivity (OD405). Scope: all listed entries.

{"columns": ["binder", "units", "Binding reactivity (OD405)"],
 "data": [
  ["NMMRFTELSTPSGGGS (also: coupled via C-terminal carboxyl to NucleoLink strips) [synthetic peptide 4 … with C-terminal GGGS spacer]", "OD405", 0.99],
  ["NMMKYISPPIFLGGGS (also: coupled via C-terminal carboxyl to NucleoLink strips) [synthetic peptide 3 … with C-terminal GGGS spacer]", "OD405", 1.11],
  ["TLAHHKKPWILRGGGS (also: coupled via C-terminal carboxyl to NucleoLink strips) [synthetic peptide 5 … (control peptide from an unrelated clone) with C-terminal GGGS spacer]", "OD405", 0.33],
  ["NMMRFTSQPPNNGGGS (also: coupled via C-terminal carboxyl to NucleoLink strips) [synthetic peptide 1 … with C-terminal GGGS spacer]", "OD405", 0.4],
  ["NMMNYIMDPRTHGGGS (also: coupled via C-terminal carboxyl to NucleoLink strips) [synthetic peptide 2 … with C-terminal GGGS spacer]", "OD405", 2.52]
]}
